Each item that follows carries a reported log10 IC50.
# procedure_summary: cells
# reported_conditions: Homo sapiens, DLD-1, 240 h, read-out: Cell viability assay IC50 (nM), CTG assay, CellTiter Glo, read on Day 10; cell line not given
// units: nM (pre-log); metric: IC50; scale: log10

Here are 7 molecules together with their reported answers.
>  <molecule>
COc1cnc(Cl)cc1-c1cncnc1C(=O)Nc1nc2ccc(C3=CCC(O)CC3)nc2s1 (centres unmarked)

>  <observed_value>
2.90

$$$$
>  <molecule>
COc1cnc(Cl)cc1-c1cc(C)ncc1C(=O)Nc1nc2cnc(N3CCC(O)CC3)nc2s1

>  <observed_value>
1.32

$$$$
>  <molecule>
COc1cnc(Cl)cc1-c1cc(C)ncc1C(=O)Nc1nc2cnc(-c3c(C)nn(C)c3C)cc2s1

>  <observed_value>
0.53

$$$$
>  <molecule>
COc1cnc(Cl)cc1-c1cc(C)ncc1C(=O)Nc1nc2ncc(C3=CCC(O)CC3)nc2s1 (centres unmarked)

>  <observed_value>
1.18

$$$$
>  <molecule>
COc1cnc(Cl)cc1-c1cc(C)ncc1C(=O)Nc1nc2ncc(N3CCC(O)C(C)(C)C3)cc2s1 (centres unmarked)

>  <observed_value>
1.36

$$$$
>  <molecule>
COc1cnc(Cl)cc1-c1cc(C)ncc1C(=O)Nc1nc2ccc(-c3c(C)cnn3C)cc2s1

>  <observed_value>
0.62

$$$$
>  <molecule>
COc1cnc(Cl)cc1-c1c(C(=O)Nc2nc3ccc(N4CCC(O)CC4)nc3s2)cnc(C)c1F

>  <observed_value>
2.77

$$$$

stdin: Reported log10 IC50 for `COc1cnc(Cl)cc1-c1cc(C)ncc1C(=O)Nc1nc2cnc(-c3c(C)cnn3C)nc2s1` : what is it?
stdout: 1.52
